pIC50: −log10 of the molar value.
Field pIC50: reported value for Lysine-specific demethylase 4C (Homo sapiens, UniProt Q9H3R0); entries drawn from several documents.

Examples with answers:
Notebook: "Cn1cnc(-c2cc(-c3nn[nH]n3)ccn2)c1-c1ccc(F)c(OCC(F)(F)F)c1" , pIC50 read as 5.00 to 6.00

Notebook: "CCCCc1ccn(-c2cc(C(=O)O)ccn2)n1" , pIC50 read as 6.00 to 7.00

// each compound listed below needs its pIC50
1. O=C(O)c1ccnc(-n2nccc2OCc2ccc(Cl)cc2Cl)c1
2. COc1cccc(N(C)c2ccc3c(c2)CCC[C@H]3CNc2cnccc2C(=O)O)c1

OUTPUT:
1: 6.00 to 7.00; 2: 6.00 to 7.00

====

Field pIC50: reported value for UniProt:Q9H3R0; entries drawn from several documents.
pIC50: −log10 of the molar value.

Examples with answers:
Notebook: "CC(C)c1ccc(N(C)c2ccc(Oc3nc(O)c4ccncc4n3)cc2)cc1N1CCOCC1" , pIC50 read as 6.00 to 7.00

Notebook: "CS(=O)(=O)c1ccc(-c2ccnn2-c2cc(C(=O)O)ccn2)cc1O" , pIC50 read as 5.00 to 6.00

Notebook: "Clc1ccccc1Cn1cnc(-c2cc(-c3nn[nH]n3)ccn2)c1" , pIC50 read as 5.00 to 6.00

// each compound listed below needs its pIC50
1. Oc1nc(OCCOc2ccccc2)nc2cnccc12
2. Oc1nc(Oc2cnn([C@H]3CCN(c4ccc(F)cc4)C3)c2)nc2cnccc12
3. CN(c1cccc(C#N)c1)c1ccc2c(c1)CCC[C@H]2CNc1cnccc1C(=O)O
4. CCCn1cnc(-c2cc(C(=O)O)ccn2)c1-c1ccc(Cl)c(F)c1
5. Oc1nc(Oc2cccc(C(F)(F)F)c2)nc2cnccc12
6. Oc1nc(Oc2ccc3cn(Cc4ccccc4)nc3c2)nc2cnccc12

OUTPUT:
1: 6.00 to 7.00; 2: ≥ 7.00; 3: 6.00 to 7.00; 4: 6.00 to 7.00; 5: 6.00 to 7.00; 6: 6.00 to 7.00

====

Field IC50: reported value for Lysine-specific demethylase 4C (Homo sapiens); entries drawn from several documents.

Notebook: "Cc1ccc(-c2ccnn2-c2cc(C(=O)O)ccn2)cc1O" , IC50 read as 0.1 to 1 µM

// each compound listed below needs its IC50
1. Cc1ccc(-c2c(-c3cc(C(=O)O)ccn3)ncn2C)cc1O
2. O=C(O)c1ccncc1NCc1coc2ccccc12
3. O=C(O)c1ccnc(-n2nccc2-c2ccc(F)c(F)c2)c1
4. Oc1nc(Oc2ccc3c(cnn3Cc3ccccc3)c2)nc2cnccc12
5. Cc1cccc(S(=O)(=O)c2ccc3c(c2)CCC[C@@H]3CNc2cnccc2C(=O)O)c1
6. CN(C)CCOCCn1nc(Nc2cnccc2C(=O)O)c2ccccc21

OUTPUT:
1. 1 to 10 µM
2. 0.1 to 1 µM
3. 0.1 to 1 µM
4. 0.1 to 1 µM
5. 1 to 10 µM
6. < 0.1 µM

// each compound listed below needs its IC50
1. COCC(C)c1ccc(N(C)c2ccc(Oc3nc(O)c4ccncc4n3)cc2)cc1 (stereo not shown)
2. CCc1ccc2c(c1)CCC[C@@H]2CNc1cnccc1C(=O)O
3. COc1cccc2c1CCCC2CNc1cnccc1C(=O)O (stereo not shown)
4. CN1CCC(c2cccc(N(C)c3ccc(Oc4nc(O)c5ccncc5n4)cc3)c2)CC1
5. COCc1ccc(N(C)c2ccc3c(c2)CCC[C@H]3CNc2cnccc2C(=O)O)cc1
6. Oc1nc(OCc2ccccc2-c2ccccc2)nc2cnccc12
7. CCc1ccc(-c2c(-c3cc(C(=O)O)ccn3)ncn2C)cc1

OUTPUT:
["0.1 to 1 µM", "0.1 to 1 µM", "0.1 to 1 µM", "≤ 0.1 µM", "0.1 to 1 µM", "0.1 to 1 µM", "1 to 10 µM"]

// each compound listed below needs its IC50
1. O=C(O)c1ccncc1NCc1cccc2cc[nH]c12
2. O=C(O)c1ccnc(-n2nccc2OCc2ccc(F)c(Cl)c2)c1

OUTPUT:
["≤ 0.1 µM", "< 0.1 µM"]

// each compound listed below needs its IC50
1. Cn1cnc(-c2nccc3c(O)nc(Oc4ccc(Cl)c(Cl)c4)nc23)c1
2. O=C(O)c1ccncc1NC[C@@H]1CCCc2cc(OCCC3CC3)ccc21
3. CN(c1ccc2c(c1)OCC[C@H]2CNc1cnccc1C(=O)O)c1ccc(Cl)cn1
4. COCCOc1cc(Cl)ccc1COc1ccnn1-c1cc(C(=O)O)ccn1
5. CC(C)C#Cc1ccc2c(c1)OCCC2CNc1cnccc1C(=O)O (stereo not shown)
6. O=C(O)c1ccncc1NC[C@@H]1CCOc2cc(-c3ccccc3Cl)ccc21
7. CCN(c1ccc(Oc2nc(O)c3ccncc3n2)cc1)c1ccc(C(C)C)cc1
8. Oc1nc(OCc2ccc3ccccc3c2)nc2cnccc12

OUTPUT:
1. ≤ 0.1 µM
2. 1 to 10 µM
3. 0.1 to 1 µM
4. 0.1 to 1 µM
5. 0.1 to 1 µM
6. 0.1 to 1 µM
7. 1 to 10 µM
8. 1 to 10 µM

// each compound listed below needs its IC50
1. Cc1cnn(-c2cc(C(=O)O)ccn2)c1OCc1ccc(F)cc1
2. CCc1ccc2c(c1)CCC[C@H]2CNc1cnccc1C(=O)O
3. CC(C)c1ccc(N(C)c2ccc(Oc3nc(O)c4ccncc4n3)cc2C(F)(F)F)cc1
4. Oc1nc(Oc2cnn(C3CCN(Cc4ccccc4)CC3)c2)nc2cnccc12

OUTPUT:
1. 0.1 to 1 µM
2. 0.1 to 1 µM
3. 1 to 10 µM
4. ≤ 0.1 µM

// each compound listed below needs its IC50
1. Cn1cnc(-c2nccc3c(O)nc(Oc4cnn(C5CCOCC5)c4)nc23)c1
2. CN(CCc1cnn(-c2cc(C(=O)O)ccn2)c1)Cc1ccc(F)cc1
3. Oc1cc(Cc2ccc(Cl)cc2)nn1-c1cc(-c2nnn[nH]2)ccn1
4. COCCOc1ccc(Oc2nc(O)c3ccnc(-c4cn(C)cn4)c3n2)cc1
5. Cc1ccc(Oc2ccc3c(c2)CCC[C@H]3CNc2cnccc2C(=O)O)c(F)c1
6. O=C(O)c1ccnc(-n2nc(C3CCCC3)cc2O)c1

OUTPUT:
1. 0.1 to 1 µM
2. < 0.1 µM
3. 1 to 10 µM
4. 0.1 to 1 µM
5. 0.1 to 1 µM
6. 1 to 10 µM
